- experimental-protocol: Pharmacokinetics in SD rats
- Type: in vivo, Sprague–Dawley (SD) rats
- condition-description: Sprague-Dawley, rat, in vivo, po, p.o. 10 mg/kg, read-out: MRT0–∞
measurement-type: MRT inf (h)
Reply numerically in h, unit not repeated.

Task: MRT inf for COC(=O)c1c(N)n(Cc2ccc(F)cc2)c2nc3ccccc3nc12 [SKLB-11A] ?
Result: 4.44

* * *

- measurement-target: SIRT3 (Homo sapiens)
- Sequence (Q9NTG7 whole entry): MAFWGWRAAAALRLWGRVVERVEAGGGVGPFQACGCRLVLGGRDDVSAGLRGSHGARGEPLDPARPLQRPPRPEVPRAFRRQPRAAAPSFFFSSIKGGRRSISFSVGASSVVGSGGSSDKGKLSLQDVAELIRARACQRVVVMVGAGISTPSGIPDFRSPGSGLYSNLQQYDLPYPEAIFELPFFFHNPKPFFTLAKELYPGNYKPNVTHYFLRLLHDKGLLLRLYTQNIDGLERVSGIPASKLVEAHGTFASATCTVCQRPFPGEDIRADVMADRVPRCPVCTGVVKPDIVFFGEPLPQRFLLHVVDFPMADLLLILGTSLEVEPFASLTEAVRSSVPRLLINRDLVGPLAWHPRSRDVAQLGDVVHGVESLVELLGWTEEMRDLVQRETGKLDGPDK
measurement-type: pKd
Entry type: numeric. Quantity: pKd, the -log10 of concentration in molar units.

Task: Request - read-out pKd | tested on SIRT3 (Homo sapiens) | compound COC(=O)c1c(N)n(Cc2ccc(F)cc2)c2nc3ccccc3nc12 [SKLB-11A]
Result: 5.33

* * *

- experimental-protocol: Pharmacokinetics in SD rats
- Assay type: in vivo, Sprague–Dawley (SD) rats
- condition-description: Sprague-Dawley, rat, in vivo, po, p.o. 10 mg/kg
measurement-type: Cmax (ng/mL)
Reply numerically in ng/mL, unit not repeated.

Task: Cmax for COC(=O)c1c(N)n(Cc2ccc(F)cc2)c2nc3ccccc3nc12 [SKLB-11A] ?
Result: 67.9

* * *

Protein target, amino acids: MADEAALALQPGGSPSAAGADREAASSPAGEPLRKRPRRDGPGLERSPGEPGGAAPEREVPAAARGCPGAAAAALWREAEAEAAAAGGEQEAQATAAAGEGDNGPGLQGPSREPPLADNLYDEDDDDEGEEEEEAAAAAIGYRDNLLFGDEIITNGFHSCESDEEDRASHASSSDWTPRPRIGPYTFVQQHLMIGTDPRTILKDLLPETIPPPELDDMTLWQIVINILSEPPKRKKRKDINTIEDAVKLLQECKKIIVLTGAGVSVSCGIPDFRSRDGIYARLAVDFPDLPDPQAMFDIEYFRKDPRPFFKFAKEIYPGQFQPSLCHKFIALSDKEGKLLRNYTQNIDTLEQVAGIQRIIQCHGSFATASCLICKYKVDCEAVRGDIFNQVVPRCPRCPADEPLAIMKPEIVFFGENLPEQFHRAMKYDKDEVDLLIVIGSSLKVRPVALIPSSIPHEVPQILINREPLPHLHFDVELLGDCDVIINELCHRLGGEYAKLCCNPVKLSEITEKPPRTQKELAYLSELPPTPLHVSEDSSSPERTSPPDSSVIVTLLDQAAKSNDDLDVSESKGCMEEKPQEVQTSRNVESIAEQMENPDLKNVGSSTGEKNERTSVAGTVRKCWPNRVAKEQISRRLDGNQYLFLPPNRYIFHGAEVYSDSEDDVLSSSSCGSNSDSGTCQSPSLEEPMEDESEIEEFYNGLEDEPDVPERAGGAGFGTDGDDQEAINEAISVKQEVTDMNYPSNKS
measurement-type: Kd

Task: Kd for COC(=O)c1c(N)n(Cc2ccc(F)cc2)c2nc3ccccc3nc12 [SKLB-11A] ?
Result: > 200 µM

* * *

- experimental-protocol: Pharmacokinetics in SD rats
- Format: in vivo, Sprague–Dawley (SD) rats
- condition-description: Sprague-Dawley, rat, in vivo, iv, i.v. 1 mg/kg
- Protocol: Given the potential of SKLB-11A for treating myocardial injury, we further evaluated its pharmacokinetic profile in Sprague–Dawley (SD) rats (Supplementary Table S5). The pharmacokinetics were assessed following both intravenous injection (1 mg/kg) and intragastric administration (10 mg/kg) of SKLB-11A.
measurement-type: Cmax (ng/mL)
Reply numerically in ng/mL, unit not repeated.

Task: Cmax for COC(=O)c1c(N)n(Cc2ccc(F)cc2)c2nc3ccccc3nc12 [SKLB-11A] ?
Result: 255
